inhibition listing for selected molecules.
testedSystem: Sentrin-specific protease 8 (Homo sapiens)
procedureDetails: blockers of human SENP8 peptidase activity – biochemical, luminescence, primary screen (AID 2540)
testContext: purified SENP8, Z-RLRGG-aminoluciferin cleavage, at 10 µM, stronger effect = higher value
In all, about 330,000 compounds went through this assay and about 4,100 (1.2%) were called active. The list comes from a sample in which actives are over-represented; it also holds close analogues and randomly drawn compounds.
Express it in %; write the number only.

These recorded examples may help you get a feel for the data.
• Cc1c(O)c(C)c2c(c1O)C(=O)C[C@@H](c1ccccc1)O2 = 6.05
• N/C(=N\OC(=O)c1ccc([N+](=O)[O-])cc1)c1ccccn1 = 89.6
• C(=N\Nc1ccc2ccccc2n1)/c1ccc2c(c1)OCO2 = 93.1
• CC(Sc1nncn1C)C(=O)NCCC1=CCCCC1 (stereo not given) = 5.55

Recorded inhibition (molecule O=C(Nc1nnc(C2COc3ccccc3O2)o1)c1ccc(F)cc1 (stereo not given) ): -17.2

# molecule `O=C(CCN1C(=O)c2ccccc2C1=O)NNC(=O)c1ccc(Cl)cc1Cl` ; its inhibition = -11.3

// sample `O=C(COC(=O)c1ccccn1)NNC(=O)c1ccc(Br)cc1` , its inhibition was 0.814

Lookup result for `CCc1ccc(NC(=O)N2CCc3ccccc3C2)cc1` ; measured inhibition: -3.45

Note to self: inhibition recorded for COc1ccccc1NC(=O)C1=C(C)Nc2nc3ccccc3n2C1c1cccs1 (stereo not given) was -5.43

GET /value?item= O=C(O)c1ccc(OCC2CCCO2)cc1 (stereo not given) &field=inhibition returns -8.8

Item: `CCCOc1ccc(C(=O)NCCc2ccccc2)cc1` | inhibition: 52

For reference, reported inhibition for `CC(C)Cn1c(SCC(=O)Nc2ccc(Cl)cc2F)nc(O)cc1=O` stands at 0.222

# molecule `Cc1ccc(S(=O)(=O)NC(=O)c2cccc(C)c2)cc1` ; its inhibition = -5.51

Value of inhibition reported for the molecule `CCOc1ccc(S(=O)(=O)N2CCC(C(=O)NCC(=O)Nc3cccc(Cl)c3C)CC2)cc1` is 3.22

---

testedSystem: Sentrin-specific protease 8 (Homo sapiens) (UniProt Q96LD8)
Sequence (Q96LD8 whole entry, looked up): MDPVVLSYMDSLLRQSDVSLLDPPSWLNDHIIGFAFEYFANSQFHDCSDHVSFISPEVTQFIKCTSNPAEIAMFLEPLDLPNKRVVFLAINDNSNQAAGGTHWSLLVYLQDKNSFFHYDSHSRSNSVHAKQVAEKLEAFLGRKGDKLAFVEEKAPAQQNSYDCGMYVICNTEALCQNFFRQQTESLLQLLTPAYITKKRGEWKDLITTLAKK
procedureDetails: blockers of human SENP8 peptidase activity – biochemical, luminescence, primary screen (AID 2540)
testContext: purified SENP8, Z-RLRGG-aminoluciferin cleavage, at 10 µM, stronger effect = higher value
The campaign covered roughly 330,000 compounds. About 4,100 (1.2%) were called active. Shown is part of a subset that was picked to be rich in actives.
recordedEndpoint: inhibition (%)
Give your result in % as a bare value.

Please review the entries below; each comes with its answer.
- CCCCCc1ccc(-c2ccc(C(=O)O)cc2)nc1: 92.4
- Cc1c(Br)c([N+](=O)[O-])nn1CC(=O)N1CCN(Cc2ccccc2)CC1: -7.38
- COc1ccc2c(c1)C=CC1(O2)N(CCO)c2ccccc2C1(C)C (stereo not drawn): 0.788

The compound identified as `O=C(CCC(=O)c1cccs1)Nc1nc2ccccc2s1` registered its inhibition at -9.74

Recorded result, `CCC1(CC)Cc2ccccc2-c2nc(CCl)[nH]c(=O)c21` , inhibition: 1.95

Recorded result, `Cn1cnc(C(F)(F)F)c1-c1ccc([N+](=O)[O-])cc1` , inhibition: 2.27

Memo: CC(OC(=O)CCCOc1ccccc1)C(=O)Nc1ccc(Cl)cn1 (stereo not drawn) , reported inhibition: -14.4

The recorded inhibition for entry `COc1cccc(NC(=O)CSc2nnc(C3CCCCC3)n2N)c1` equals 6.19

Documented inhibition of `O=C(Nc1ccc(O)cc1)c1ccc(NC(=O)c2ccco2)cc1` : -13.6

Notebook: `COc1ccc(C(=O)NC(=S)Nc2ccc(Cl)cn2)cc1OC` , inhibition read as -13.1

Lab note: `O=C(/C=C/c1ccco1)Nc1ccc(Oc2ccccc2)cc1` gave inhibition of 58.9

Entry under test: `CCc1noc(C)c1C(=O)Nc1nc(-c2ccccc2)cs1` . Its inhibition was -12.4

# inhibition of `Cc1ccccc1Nc1nc(-c2cccnc2)cs1` = 44
